- EXPERIMENT_DESCRIPTION: Pharmacokinetic evaluation in mice
- Format: in vivo, C57BL/6J male mice
- SETTINGS: male, C57BL/6J, mouse, plasma, IP, 2 mg kg-1
EXPERIMENTAL_ENDPOINT: AUC(0-inf) (ng·h/mL)
Number only, in ng·h/mL; omit the unit.

Q: Reported AUC(0-inf), compound `CC[C@H](C(=O)N1CCCC[C@H]1C(=O)O[C@H](CCc1ccc(OC)c(OC)c1)c1ccccc1OCC(=O)NCCCCCCC(=O)N[C@H](C(=O)N1C[C@H](O)C[C@H]1C(=O)N[C@@H](C)c1ccc(-c2scnc2C)cc1)C(C)(C)C)c1cc(OC)c(OC)c(OC)c1` : ____
Result: 3140
